# System Tested: Adenosine receptor A2b (Homo sapiens, UniProt P29275)
# Sequence (P29275 whole entry): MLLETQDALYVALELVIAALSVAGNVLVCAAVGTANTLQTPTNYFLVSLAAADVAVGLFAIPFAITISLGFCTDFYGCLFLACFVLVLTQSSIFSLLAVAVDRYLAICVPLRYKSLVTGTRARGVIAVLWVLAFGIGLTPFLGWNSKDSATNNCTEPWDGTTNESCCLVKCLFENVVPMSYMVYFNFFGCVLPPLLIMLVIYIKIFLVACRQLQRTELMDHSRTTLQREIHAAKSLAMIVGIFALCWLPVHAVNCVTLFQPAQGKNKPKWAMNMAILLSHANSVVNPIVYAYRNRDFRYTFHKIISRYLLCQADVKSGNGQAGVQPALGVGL
# Test Details: Displacement of [3H]-MRS-1754 from human adenosine A2B receptor expressed in HEK293 cell membranes after 90 mins
# Condition Info: read-out: Ki
Catalogue of pKi readings, one per entry.
Field pKi (float): negative decimal logarithm of the concentration in molar.

Could you tell me which pKi is on file for `CCCn1c(=O)c2[nH]c(-c3cnn(CC#Cc4ccc(C#N)cc4)c3)nc2n(CCC)c1=O` ?
7.85

New cases:
Could you tell me which pKi is on file for `CCCn1c(=O)c2[nH]c(-c3cnn(CC#Cc4cccc(OC)c4)c3)nc2n(CCC)c1=O` ?
8.20

Could you tell me which pKi is on file for `CCCn1c(=O)c2[nH]c(-c3cnn(CC#Cc4cccc(F)c4)c3)nc2n(CC)c1=O` ?
8.13

Could you tell me which pKi is on file for `CCCn1c(=O)c2[nH]c(-c3cc(OCC#Cc4ccc(F)cc4)no3)nc2n(CCC)c1=O` ?
7.82
